tested on: Acinetobacter baumannii; test: Antibacterial activity against Acinetobacter baumannii A3-08 after 24 hrs by microdilution method; assay type: functional; details: A3-08, 24 h
Measured Attribute: MIC (µg/mL)
Write the value in µg/mL as a bare number.

Recorded MIC, per entry:
CCCCCCCCCCCCCCCOP(=O)(CCN(CCNC(=N)N)CCNC(=N)N)OC[C@H]1O[C@@H](n2ccc(=O)[nH]c2=O)[C@H](O)[C@@H]1O (stereo partly drawn) = 6.25
CCCCCCCCCCCCCCCOP(=O)(CCN1C[C@@H](O)[C@@H](N)C1)OC[C@H]1O[C@@H](n2ccc(=O)[nH]c2=O)[C@H](O)[C@@H]1O (stereo partly drawn) = 6.25

GET /values?readout=MIC&item= CCCCCCCCCCCCCCCCOP(=O)(CCN(CCCN)CCCN)OC[C@H]1O[C@@H](n2ccc(=O)[nH]c2=O)[C@H](O)[C@@H]1O (stereo partly drawn)
3.13

----------
tested on: Pseudomonas aeruginosa; assay: Antibacterial activity against Pseudomonas aeruginosa 16575 after 24 hrs by microdilution method; type: functional; conditions: Pseudomonas aeruginosa, 16575, 24 h
# strict inequality: MIC < 6 µg/mL yields criterion met, everything else yields criterion not met

Solved cases below.
CCCCCCCCCCCCCCCOP(=O)(CCN(CCN)CCN)OC[C@H]1O[C@@H](n2ccc(=O)[nH]c2=O)[C@H](O)[C@@H]1O (some centres not stated) = criterion met
CCCCCCCCCCCCCOP(=O)(CCN(CCCN)CCCN)OC[C@H]1O[C@@H](n2ccc(=O)[nH]c2=O)[C@H](O)[C@@H]1O (some centres not stated) = criterion not met

Is 6 µg/mL strictly greater than the molecule's reported MIC? molecule: CCCCCCCCCCCCCCCOP(=O)(CCN(CCNC(=N)N)CCNC(=N)N)OC[C@H]1O[C@@H](n2ccc(=O)[nH]c2=O)[C@H](O)[C@@H]1O (some centres not stated)
criterion not met

Is it true that MIC reported for CCCCCCCCCCCCCCCOP(=O)(CCN1CCC(N)C1)OC[C@H]1O[C@@H](n2ccc(=O)[nH]c2=O)[C@H](O)[C@@H]1O (some centres not stated) is less than 6 µg/mL?
criterion not met

----------
Known MIC of a selection of compounds
system: Acinetobacter baumannii; test: Antibacterial activity against Acinetobacter baumannii A3-08 after 24 hrs by microdilution method; type: functional; settings: A3-08, 24 h
Give just the number in µg/mL; leave the unit off.

CCCCCCCCCCCCCCOP(=O)(CCN1CCC(N)C1)OC[C@H]1O[C@@H](n2ccc(=O)[nH]c2=O)[C@H](O)[C@@H]1O (some centres not stated) = 6.25

So what's the measured MIC for this one? CCCCCCCCCCCCCOP(=O)(CCN(CCCN)CCCN)OC[C@H]1O[C@@H](n2ccc(=O)[nH]c2=O)[C@H](O)[C@@H]1O (some centres not stated)
50

Return reported MIC; argument: CCCCCCCCCCCCCCCCOP(=O)(CCN(CCN)CCN)OC[C@H]1O[C@@H](n2ccc(=O)[nH]c2=O)[C@H](O)[C@@H]1O (some centres not stated)
6.25

Using the record for CCCCCCCCCCCCCCOP(=O)(CCN(CCN)CCN)OC[C@H]1O[C@@H](n2ccc(=O)[nH]c2=O)[C@H](O)[C@@H]1O (some centres not stated) , report its MIC.
25

Using the record for CCCCCCCCCCCCCCCOP(=O)(CCN(CCN)CCN)OC[C@H]1O[C@@H](n2ccc(=O)[nH]c2=O)[C@H](O)[C@@H]1O (some centres not stated) , report its MIC.
3.13

I would be grateful if you could share the reported MIC for CCCCCCCCCCCCCCCCOP(=O)(CCN(CCNC(=N)N)CCNC(=N)N)OC[C@H]1O[C@@H](n2ccc(=O)[nH]c2=O)[C@H](O)[C@@H]1O (some centres not stated) .
6.25

Would you kindly share the measured MIC for CCCCCCCCCCCCCOP(=O)(CCN(CCCNC(=N)N)CCCNC(=N)N)OC[C@H]1O[C@@H](n2ccc(=O)[nH]c2=O)[C@H](O)[C@@H]1O (some centres not stated) ?
25

----------
system: Pseudomonas aeruginosa; experiment: Antibacterial activity against Pseudomonas aeruginosa CCM 3955 after 24 hrs by microdilution method; format: functional; settings: CCM 3955, 24 h
Measured Attribute: MIC (µg/mL)
Please state the figure in µg/mL; there is no need to write the unit.

CCCCCCCCCCCCCCCCOP(=O)(CCN(CCCNC(=N)N)CCCNC(=N)N)OC[C@H]1O[C@@H](n2ccc(=O)[nH]c2=O)[C@H](O)[C@@H]1O (some centres not stated) = 3.13

# context switch: different compound, same MIC
Reported MIC for CCCCCCCCCCCCCCOP(=O)(CCN(CCN)CCN)OC[C@H]1O[C@@H](n2ccc(=O)[nH]c2=O)[C@H](O)[C@@H]1O (some centres not stated) : what is it?
3.13

----------
tested on: Staphylococcus haemolyticus; experiment: Antibacterial activity against fluoroquinolne-resistant Staphylococcus haemolyticus 16568 after 24 hrs by microdilution method; assay type: functional; settings: Staphylococcus haemolyticus, 16568, 24 h
# key: entry, value: MIC
Report only the number, with the unit µg/mL understood.

Guide cases for MIC, answers given:
CCCCCCCCCCCCCOP(=O)(CCN(CCCNC(=N)N)CCCNC(=N)N)OC[C@H]1O[C@@H](n2ccc(=O)[nH]c2=O)[C@H](O)[C@@H]1O (stereo partly drawn) = 3.13
CCCCCCCCCCCCCCCOP(=O)(CCN(CCCN)CCCN)OC[C@H]1O[C@@H](n2ccc(=O)[nH]c2=O)[C@H](O)[C@@H]1O (stereo partly drawn) = 3.13

# input for lookup
Form field - read-out: MIC; system: Staphylococcus haemolyticus; submitted item: CCCCCCCCCCCCCCCCOP(=O)(CCN(CCNC(=N)N)CCNC(=N)N)OC[C@H]1O[C@@H](n2ccc(=O)[nH]c2=O)[C@H](O)[C@@H]1O (stereo partly drawn)
6.25

----------
tested on: Enterococcus faecium; test: Antibacterial activity against vancomycin-resistant Enterococcus faecium 419/ana clinical isolates after 24 hrs by microdilution method; format: functional
Measured Attribute: MIC (µg/mL)
Provide only the numeric value, understood in µg/mL.

Examples with answers:
CCCCCCCCCCCCCCCCOP(=O)(CCN(CCN)CCN)OC[C@H]1O[C@@H](n2ccc(=O)[nH]c2=O)[C@H](O)[C@@H]1O (stereo partly drawn) = 50
CCCCCCCCCCCCCCCCOP(=O)(CCN(CCCNC(=N)N)CCCNC(=N)N)OC[C@H]1O[C@@H](n2ccc(=O)[nH]c2=O)[C@H](O)[C@@H]1O (stereo partly drawn) = 25
CCCCCCCCCCCCCCCOP(=O)(CCN(CCCNC(=N)N)CCCNC(=N)N)OC[C@H]1O[C@@H](n2ccc(=O)[nH]c2=O)[C@H](O)[C@@H]1O (stereo partly drawn) = 50

// MIC lookup, key: CCCCCCCCCCCCCCOP(=O)(CCN(CCCN)CCCN)OC[C@H]1O[C@@H](n2ccc(=O)[nH]c2=O)[C@H](O)[C@@H]1O (stereo partly drawn)
100

Sample CCCCCCCCCCCCOP(=O)(CCN(CCCN)CCCN)OC[C@H]1O[C@@H](n2ccc(=O)[nH]c2=O)[C@H](O)[C@@H]1O (stereo partly drawn) — what was its MIC?
25

----------
tested on: Pseudomonas aeruginosa; test: Antibacterial activity against Pseudomonas aeruginosa CCM 3955 after 24 hrs by microdilution method; assay type: functional; conditions: CCM 3955, 24 h
Measured Attribute: MIC (µg/mL)
Please reply with the bare figure in µg/mL and do not write the unit itself.

CCCCCCCCCCCCCCOP(=O)(CCN(CCCN)CCCN)OC[C@H]1O[C@@H](n2ccc(=O)[nH]c2=O)[C@H](O)[C@@H]1O (some centres not stated) = 0.78
CCCCCCCCCCCCCCCCOP(=O)(CCN(CCNC(=N)N)CCNC(=N)N)OC[C@H]1O[C@@H](n2ccc(=O)[nH]c2=O)[C@H](O)[C@@H]1O (some centres not stated) = 6.25
CCCCCCCCCCCCCCCOP(=O)(CCN(CCNC(=N)N)CCNC(=N)N)OC[C@H]1O[C@@H](n2ccc(=O)[nH]c2=O)[C@H](O)[C@@H]1O (some centres not stated) = 6.25
CCCCCCCCCCCCCCCOP(=O)(CCN(CCCN)CCCN)OC[C@H]1O[C@@H](n2ccc(=O)[nH]c2=O)[C@H](O)[C@@H]1O (some centres not stated) = 3.13
CCCCCCCCCCCCCCCOP(=O)(CCN1CCC(N)C1)OC[C@H]1O[C@@H](n2ccc(=O)[nH]c2=O)[C@H](O)[C@@H]1O (some centres not stated) = 12.5
CCCCCCCCCCCCCCCOP(=O)(CCN(CCN)CCN)OC[C@H]1O[C@@H](n2ccc(=O)[nH]c2=O)[C@H](O)[C@@H]1O (some centres not stated) = 1.56

// moving on: another record for MIC
Returns the measured MIC for the input molecule. Input: CCCCCCCCCCCCCCOP(=O)(CCN1CCC(N)C1)OC[C@H]1O[C@@H](n2ccc(=O)[nH]c2=O)[C@H](O)[C@@H]1O (some centres not stated)
3.13
